System: PRMT5-dependent Symmetric Di-methyl Arginine signal in HCT116 homozygous MTAP Knockout cells
procedure text: SYM11 In-Cell Western in HCT116 homozygous MTAP knockout cells
Assay type: cell-based
run parameters: 4 days of treatment, SYM11/DRAQ5 ratio as percent of DMSO control, read-out: In-cell-Western (SYM11) IC50 (nM) HCT116 MTAP_KO
measured endpoint: IC50 (nM)

INSERT INTO assay_data (compound, measured_endpoint, numeric_result) VALUES
  ('N#Cc1c(OC2CC2)cc(Cl)c(F)c1-c1c(-c2ccc3c(=O)[nH]nc(CN)c3c2)cnn1C(F)(F)F (atropisomer, axis not shown; (P)) [Example 16-119]', 'IC50', 1000);

P. Cc1cc(-c2cnn(C)c2-c2c(F)c(Cl)c3ccccc3c2C#N)cc2c(CN)n[nH]c(=O)c12 (atropisomer, axis not shown; (P)) [Example 16-17]
Q. Cc1cc(-c2cnn(C)c2-c2c(F)ccc(OC3CC3)c2C#N)cc2c(CN)n[nH]c(=O)c12 (atropisomer, axis not shown; (M))
Ask: Kindly compare P with Q and tell me which has the lower IC50 figure. Write the label of whichever entry you select.
Result: Q
(Q: 10 nM, P: 129 nM)

----------
target entity: PRMT5/MEP50 complex (Homo sapiens)
Construct: purchased Reaction Biology Corporation
procedure text: PRMT5:MEP50 HotSpot Assay (full-length histone H2A substrate, plus and minus MTA)
Assay type: biochemical
run parameters: IC50 + 2 μM MTA, in the presence of 2 μM MTA
measured endpoint: IC50 (nM)

INSERT INTO assay_data (compound, measured_endpoint, measurement_units, numeric_result) VALUES
  ('Cc1cc(-c2cnn(C)c2-c2c(F)cc3ccccc3c2C#N)cc2c(CN)n[nH]c(=O)c12 (single isomer, unassigned) [Example 16-15]', 'IC50', 'nM', 95);

1. N#Cc1c(-c2c(-c3ccc4c(=O)[nH]nc(CN)c4c3)cnn2C(F)F)sc2ccccc12
2. Cc1c(F)c(-c2c(-c3cc(C)c4c(=O)[nH]nc(CN)c4c3)cnn2C)c(C#N)c2cc(Cl)cnc12 (single isomer, unassigned) [Example 16-108]
3. Cc1cc(OC2CC2)c(C#N)c(-c2c(-c3cc(C)c4c(=O)[nH]nc(CN)c4c3)cnn2C)c1F (single isomer, unassigned) [Example 16-44]
Ask: rank_up(items): orders items by reported IC50 in ascending numerical order. List the labels, following the order given in the request.
Result: 2, 3, 1
(2: 5 nM, 3: 69.5 nM, 1: 308 nM)

----------
target entity: PRMT5/MEP50 complex (Homo sapiens, UniProt O14744)
Construct: purchased Reaction Biology Corporation
Sequence (O14744 2-637 limits assumed): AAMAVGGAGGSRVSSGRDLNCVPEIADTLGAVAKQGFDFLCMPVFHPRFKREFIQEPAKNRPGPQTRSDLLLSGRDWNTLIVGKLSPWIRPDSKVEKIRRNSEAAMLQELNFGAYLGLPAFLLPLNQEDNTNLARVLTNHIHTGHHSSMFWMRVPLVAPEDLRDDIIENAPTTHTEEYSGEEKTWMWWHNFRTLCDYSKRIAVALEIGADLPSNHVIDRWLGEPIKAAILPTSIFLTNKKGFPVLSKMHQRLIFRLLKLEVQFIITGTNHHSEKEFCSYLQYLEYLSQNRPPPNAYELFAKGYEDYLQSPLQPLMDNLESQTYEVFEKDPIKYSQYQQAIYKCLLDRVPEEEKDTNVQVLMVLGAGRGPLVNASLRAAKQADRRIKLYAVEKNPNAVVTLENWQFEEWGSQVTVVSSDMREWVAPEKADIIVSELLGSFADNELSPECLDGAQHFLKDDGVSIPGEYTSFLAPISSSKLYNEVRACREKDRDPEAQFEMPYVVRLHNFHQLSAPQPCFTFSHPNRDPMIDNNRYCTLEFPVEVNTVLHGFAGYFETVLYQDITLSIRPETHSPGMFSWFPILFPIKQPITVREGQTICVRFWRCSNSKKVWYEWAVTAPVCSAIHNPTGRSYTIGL
Sequence (Q9BQA1 2-342 partner limits assumed): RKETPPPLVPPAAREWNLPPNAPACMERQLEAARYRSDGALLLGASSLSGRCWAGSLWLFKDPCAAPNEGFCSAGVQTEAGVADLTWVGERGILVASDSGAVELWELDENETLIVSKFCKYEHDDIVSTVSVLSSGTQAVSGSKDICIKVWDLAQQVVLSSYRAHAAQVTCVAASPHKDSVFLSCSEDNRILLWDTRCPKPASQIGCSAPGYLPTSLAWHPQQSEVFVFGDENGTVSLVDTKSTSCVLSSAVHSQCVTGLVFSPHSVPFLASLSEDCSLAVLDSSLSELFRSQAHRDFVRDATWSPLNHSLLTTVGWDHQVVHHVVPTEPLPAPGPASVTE
procedure text: PRMT5:MEP50 HotSpot Assay (full-length histone H2A substrate, plus and minus MTA)
Assay type: biochemical
run parameters: IC50 + 2 μM MTA, in the presence of 2 μM MTA
Where a name gives a salt, the structure may show the parent alone.
measured endpoint: IC50 (nM)

INSERT INTO assay_data (compound, target_entity, measured_endpoint, measurement_units, numeric_result) VALUES
  ('CCOc1cc(-c2cnn(C)c2-c2c(F)c(Cl)c3ccccc3c2C#N)cc2c(CN)n[nH]c(=O)c12 (single isomer, unassigned) [Example 16-80]', 'PRMT5/MEP50 complex (Homo sapiens, UniProt O14744)', 'IC50', 'nM', 415),
  ('Cc1sc(-c2c(-c3ccc4c(=O)[nH]nc(CN)c4c3)cnn2C)c(C#N)c1OC1CC1 [Example 4-276]', 'PRMT5/MEP50 complex (Homo sapiens, UniProt O14744)', 'IC50', 'nM', 222),
  ('Cc1cnc2cc(F)c(-c3c(-c4ccc5c(=O)[nH]nc(CN)c5c4)cnn3C)c(C#N)c2c1 (atropisomer, axis not shown; (P)) [Example 16-36]', 'PRMT5/MEP50 complex (Homo sapiens, UniProt O14744)', 'IC50', 'nM', 543),
  ('COCc1cccc2c(C#N)c(-c3c(-c4ccc5c(=O)[nH]nc(CN)c5c4)cnn3C)sc12 [Example 12-20, hydrochloride]', 'PRMT5/MEP50 complex (Homo sapiens, UniProt O14744)', 'IC50', 'nM', 183),
  ('Cn1ncc(-c2ccc3c(=O)[nH]nc(CN)c3c2)c1-c1c(C(F)F)cc2ccccc2c1C#N (single isomer, unassigned) [Example 16-129]', 'PRMT5/MEP50 complex (Homo sapiens, UniProt O14744)', 'IC50', 'nM', 5250),
  ('Cn1ncc(-c2cc(Cl)c3c(=O)[nH]nc(CN)c3c2)c1-c1c(F)c(Cl)c2ccccc2c1C#N (single isomer, unassigned) [Example 16-58]', 'PRMT5/MEP50 complex (Homo sapiens, UniProt O14744)', 'IC50', 'nM', 4.61),
  ('N#Cc1c(OC2CC2)cc(Cl)c(F)c1-c1c(-c2ccc3c(=O)[nH]nc(CN)c3c2)cnn1C(F)(F)F (atropisomer, axis not shown; (P)) [Example 16-119]', 'PRMT5/MEP50 complex (Homo sapiens, UniProt O14744)', 'IC50', 'nM', 489),
  ('Cc1cc(-c2cnn(C)c2-c2c(C#N)cc3ccccc3c2Cl)cc2c(CN)n[nH]c(=O)c12 (single isomer, unassigned) [Example 16-51]', 'PRMT5/MEP50 complex (Homo sapiens, UniProt O14744)', 'IC50', 'nM', 261),
  ('Cn1ncc(-c2ccc3c(=O)[nH]nc(CN)c3c2)c1N1CCCCC1C#N (stereo not shown) [Example 4-289]', 'PRMT5/MEP50 complex (Homo sapiens, UniProt O14744)', 'IC50', 'nM', 4080),
  ('Cn1ncc(-c2ccc3c(=O)[nH]nc(CN)c3c2)c1-c1c(C#N)cc2cccnc2c1Cl (atropisomer, axis not shown; (P)) [Example 16-83]', 'PRMT5/MEP50 complex (Homo sapiens, UniProt O14744)', 'IC50', 'nM', 446);

I. Cn1ncc(-c2cc(Cl)c3c(=O)[nH]nc(CN)c3c2)c1-c1c(F)ccc(OC2CC2)c1C#N (atropisomer, axis not shown; (P)) [Example 16-55]
II. Cn1ncc(-c2ccc3c(=O)[nH]nc(CN)c3c2)c1-c1c(F)cc2c(c1C#N)OCO2 (atropisomer, axis not shown; (M)) [Example 16-88]
Ask: Between the entries labelled I and II , which has a larger IC50 value on record? Write the label of whichever entry you select.
Result: I
(I: 260 nM, II: 181 nM)

P. Cn1ncc(-c2ccc3c(=O)[nH]nc(CN)c3c2)c1-c1c(F)c(Cl)c2ccccc2c1C#N (single isomer, unassigned) [Example 16-9]
Q. CCn1ncc(-c2ccc3c(=O)[nH]nc(CN)c3c2)c1-c1sc2ccccc2c1C#N [Example 19-1]
Ask: Between the entries labelled P and Q , which has a larger IC50 value on record? Write the label of whichever entry you select.
Result: P
(P: 248 nM, Q: 146 nM)

----------
Test system: PRMT5-dependent Symmetric Di-methyl Arginine signal in HCT116 parental cells
procedure text: SYM11 In-Cell Western in HCT116 parental cells
Assay type: cell-based
run parameters: Homo sapiens, HCT-116, 96 h, HCT116 parental cells; 4 days of treatment; SYM11/DRAQ5 ratio as percent of DMSO control; read-out: In-cell-Western (SYM11) IC50 (nM) HCT216 parental
measured endpoint: IC50

Reference set (2 entries):
INSERT INTO measurements (compound, result) VALUES
  ('Cn1ncc(-c2cc(C(F)F)c3c(=O)[nH]nc(CN)c3c2)c1-c1sc2ccccc2c1C#N [Example 10-21]', '> 1000 nM'),
  ('COCc1nc2sc(-c3c(-c4ccc5c(=O)[nH]nc(CN)c5c4)cnn3C)c(C#N)c2cc1Cl [Example 4-272]', '> 1000 nM');

Ask: // lookup IC50 for Cc1cc(-c2cnn(C)c2-c2sc3ccccc3c2C#N)cc2c(CN)n[nH]c(=O)c12 [Example 10-23]
Result: > 1000 nM

----------
target entity: PRMT5/MEP50 complex (Homo sapiens, UniProt O14744)
Construct: purchased Reaction Biology Corporation
procedure text: PRMT5:MEP50 HotSpot Assay (full-length histone H2A substrate, plus and minus MTA)
Format: biochemical
run parameters: IC50 + 2 μM MTA, in the presence of 2 μM MTA
pIC50: −log10 of the molar value.
measured endpoint: pIC50

INSERT INTO assay_data (compound, numeric_result) VALUES
  ('Cn1ncc(-c2ccc3c(c2)C(CN)NC3=O)c1-c1sc2ccccc2c1C#N (centres unmarked) [Example 20-4]', 5.99);

I. Cn1ncc(-c2cc(Cl)c3c(=O)[nH]nc(CN)c3c2)c1-c1c(F)c(Cl)cc(OC2CC2)c1C#N (single isomer, unassigned) [Example 16-27]
II. COc1nnc(CN)c2cc(-c3cnn(C)c3-c3sc4ccccc4c3C#N)ccc12 [Example 17-6]
Ask: Kindly compare I with II and tell me which has the lower pIC50 figure. Write the label of whichever entry you select.
Result: II
(II: 5.12, I: 5.65)

1. CCOc1cc(-c2cnn(C)c2-c2c(F)c(Cl)cc(OC3CC3)c2C#N)cc2c(CN)n[nH]c(=O)c12 (single isomer, unassigned) [Example 16-78]
2. Cn1nnc(-c2ccc3c(=O)[nH]nc(CN)c3c2)c1-c1sc2ccccc2c1C#N [Example 4-291]
3. COCc1nc2sc(-c3c(-c4ccc5c(=O)[nH]nc(CN)c5c4)cnn3C)c(C#N)c2cc1Cl [Example 4-272]
4. Cc1c(F)c(-c2c(-c3cc(C)c4c(=O)[nH]nc(CN)c4c3)cnn2C)c(C#N)c2ncc(Cl)cc12 (single isomer, unassigned) [Example 16-96]
Ask: hey, can you rank those compounds up there by pIC50? biggest number first please List the labels, following the order given in the request.
Result: 1, 3, 2, 4
(1: 6.86, 3: 6.59, 2: 6.13, 4: 5.23)

The reported measurements were obtained from patent US20240208912A1.
